Hey, just so you know, these numbers are from PubChem BioAssay (NCI).

System: SF-539 CNS
TEST_NAME: NCI tumour cell line growth inhibition, 48 h
MEASURED_PARAMETER: TGI

Here's what some known entries look like.
{"MOLECULE": "Cc1cc(C(=O)Nc2cc(Oc3ccc4nc(NC(=O)C5CC5)cn4n3)ccc2C)n(C)n1", "TGI": "> 10 µM"}
{"MOLECULE": "COc1cc2c3c(n(CCCCNC(=O)OC(C)(C)C)c(=O)c2cc1OC)-c1cc2c(cc1C3=O)OCO2", "TGI": "> 100 µM"}
{"MOLECULE": "CCOC(=O)CCC(NC(=O)c1ccc(Nc2nc3cc(C(F)(F)F)ccc3nc2C(=O)OCC)cc1)C(=O)OCC (stereo unspecified)", "TGI": "25.2 µM"}

### Prompt Quick check: TGI of C[C@]12CC[C@@H]3c4ccc(O)cc4CC[C@H]3[C@@H]1CC[C@@H]2NS(=O)(=O)c1cccc(Cl)c1 ?
### Response 3.45 µM

### Prompt Quick check: TGI of N/C(=N\NC(=O)c1nc2ccccc2s1)c1ccccn1 ?
### Response 15.6 µM

### Prompt Quick check: TGI of Oc1cc(O)c2c(c1)O[C@H](c1cc(O)c(O)c(O)c1)[C@@H](O)C2 ?
### Response 40.7 µM
